test system: C. albicans R303; experiment: mouse candidiasis infection model, IP administration, kidney fungal burden; format: in vivo; settings: Second run; IP 1.5 mg/kg; kidneys 24 h after infection
*1 amine or outer side, *2 acyl side, *3 side chain or, on linkers, in order; H or OH if unused. Where a SMILES comes first, the peptide text is derived from it. Bridges are numbered along the chain shown (N, C = ends). [ ]: non-standard residue; d: D form. The star is where a group is joined. pTerphenylCO(4''-OnC5H11) = CCCCCOc1ccc(-c2ccc(-c3ccc(C(=O)*)cc3)cc2)cc1; Orn(4R-OH,5R-OH) = O=C([C@H](C[C@@H](O)[C@@H](O)N[*:3])N[*:1])[*:2]; hTyr(3S-OH,4S-OH) = N[C@H](C(=O)O)[C@H](O)[C@@H](O)c1ccc(O)cc1; Pro(3S-OH,4S-Me) = C[C@H]1CN[C@H](C(=O)O)[C@H]1O; Hyp = O=C(O)[C@@H]1C[C@@H](O)CN1
parameter: Mean log10 CFU/kidneys (±SEM) (log10 CFU/kidneys)
Give the number; log10 CFU/kidneys is assumed, so skip it.

Previously resolved entries follow.
compound	u	Mean log10 CFU/kidneys (±SEM)
CCCCCOc1ccc(-c2ccc(-c3ccc(C(=O)N[C@H]4C[C@@H](O)C(OCC[N+](C)(C)C)NC(=O)C5[C@@H](O)[C@@H](C)CN5C(=O)C([C@@H](C)O)NC(=O)C([C@H](O)[C@@H](O)c5ccc(O)cc5)NC(=O)C5C[C@@H](O)CN5C(=O)C([C@@H](C)O)NC4=O)cc3)cc2)cc1 (stereo partly drawn)	log10 CFU/kidneys	1.83
CCCCCOc1ccc(-c2ccc(-c3ccc(C(=O)N[C@H]4C[C@@H](O)C(OCCOCCN)NC(=O)C5[C@@H](O)[C@@H](C)CN5C(=O)C([C@@H](C)O)NC(=O)C([C@H](O)[C@@H](O)c5ccc(O)cc5)NC(=O)C5C[C@@H](O)CN5C(=O)C([C@@H](C)O)NC4=O)cc3)cc2)cc1 (stereo partly drawn)	log10 CFU/kidneys	0.73

Let us examine a further case.
Any idea what its Mean log10 CFU/kidneys (±SEM) is? The compound is CCCCCOc1ccc(-c2ccc(-c3ccc(C(=O)N[C@H]4C[C@@H](O)[C@@H](O)NC(=O)[C@@H]5[C@@H](O)[C@@H](C)CN5C(=O)[C@H]([C@@H](C)O)NC(=O)[C@H]([C@H](O)[C@@H](O)c5ccc(O)cc5)NC(=O)[C@@H]5C[C@@H](O)CN5C(=O)[C@H]([C@@H](C)O)NC4=O)cc3)cc2)cc1 [anidulafungin, reference compound] ({pTerphenylCO(4''-OnC5H11)}-[Orn(4R-OH,5R-OH)]T[Hyp][hTyr(3S-OH,4S-OH)]T[Pro(3S-OH,4S-Me)]; lactam 1-C) 2.77
